Kindly state inhibition for each of the entries shown.
MEASUREMENT_TARGET: Adrenergic receptor beta (Homo sapiens) (UniProt P08588+P07550+P13945)
ASSAY_PROTOCOL: In vivo beta adrenergic receptor blocking potency was determined by inhibition of depressor response produced by isoproterenol (0.2 mg/kg iv) in cat preparation
Format: functional, organism-based
TEST_PARAMETERS: Felis catus; target entry is the homologue from another species; in the assay text read “0.2 µg/kg iv” for “0.2 mg/kg iv”
Answers are plain numbers, in %.

Parameters: items (list). Returns: inhibition for each item.
1. N#Cc1ccccc1OCC(O)CNCCNC(N)=O (stereo not given)
2. CC(C)(CNC(=O)Cc1ccccc1)NCC(O)COc1ccccc1 (stereo not given)
3. CC(CNC(=O)C(C)C)NCC(O)COc1ccccc1 (stereo not given)
4. C=CCOc1ccccc1OCC(O)CNC(C)CNC(=O)Cc1ccccc1 (stereo not given)
5. C=CCOc1ccccc1OCC(O)CNCCNC(=O)Nc1ccccc1 (stereo not given)

A.
1: 21; 2: 0; 3: 37; 4: 30; 5: 24

Parameters: items (list). Returns: inhibition for each item.
1. CC(C)NC(=O)NCCNCC(O)COc1ccccc1 (stereo not given)
2. CC(C)S(=O)(=O)NCCNCC(O)COc1ccccc1 (stereo not given)
3. CC(C)NC(=O)NCCNCC(O)COc1ccccc1C#N (stereo not given)
4. CC(CNC(=O)Cc1ccccc1)NCC(O)COc1ccccc1 (stereo not given)
5. CCNC(=O)NCCNCC(O)COc1ccccc1 (stereo not given)
6. CCCCCCCCC(=O)NCCNCC(O)COc1ccccc1 (stereo not given)
7. CC(C)C(=O)NCC(C)(C)NCC(O)COc1ccccc1 (stereo not given)

A.
1: 0; 2: 9; 3: 0; 4: 0; 5: 0; 6: 3; 7: 0

Parameters: items (list). Returns: inhibition for each item.
1. O=C(Cc1ccc(Cl)cc1)NCCNCC(O)COc1ccccc1 (stereo not given)
2. CC(C)C(=O)NCCNCC(O)COc1ccccc1[N+](=O)[O-] (stereo not given)
3. CC(C)(C)C(=O)NCCNCC(O)COc1ccccc1[N+](=O)[O-] (stereo not given)
4. O=C(COc1ccccc1)NCCNCC(O)COc1ccccc1 (stereo not given)
5. O=C(NCCNCC(O)COc1ccccc1)NC1CCCCC1 (stereo not given)
6. CC(=O)NCCCCCCNCC(O)COc1ccccc1 (stereo not given)
7. O=C(NCCNCC(O)COc1ccccc1)c1ccc(O)c(O)c1 (stereo not given)
8. CCCCCC(=O)NCCNCC(O)COc1ccccc1 (stereo not given)

A.
1: 8; 2: 5; 3: 25; 4: 0; 5: 6; 6: 16; 7: 0; 8: 0

====

Kindly state ED50 for each of the entries shown.
MEASUREMENT_TARGET: Adrenergic receptor beta (Homo sapiens) (UniProt P08588+P07550+P13945)
ASSAY_PROTOCOL: In vivo beta adrenergic receptor blocking potency was determined by inhibition of tachycardia produced by isoproterenol (0.2 mg/kg iv) in cat preparation
Assay type: functional, organism-based
TEST_PARAMETERS: Felis catus; in the assay text read “0.2 µg/kg iv” for “0.2 mg/kg iv”; target entry is the homologue from another species
Please answer using the number first and the unit second.

CCCCCCCCC(=O)NCCNCC(O)COc1ccccc1 (stereo not drawn) | 0.84 mg/kg
CC(C)(C)C(=O)NCCNCC(O)COc1ccccc1[N+](=O)[O-] (stereo not drawn) | 0.011 mg/kg

Continue with the compound presented below.
Tested on Adrenergic receptor beta (Homo sapiens) (UniProt P08588+P07550+P13945), the item CC(CNC(=O)C(C)C)NCC(O)COc1ccccc1 (stereo not drawn) showed ED50 equal to 0.005 mg/kg

====

MEASUREMENT_TARGET: Adrenergic receptor beta (Homo sapiens) (UniProt P08588+P07550+P13945)
ASSAY_PROTOCOL: In vivo beta adrenergic receptor blocking potency was determined by inhibition of tachycardia produced by isoproterenol (0.2 mg/kg iv) in cat preparation
Type: functional, organism-based
TEST_PARAMETERS: Felis catus; target entry is the homologue from another species; in the assay text read “0.2 µg/kg iv” for “0.2 mg/kg iv”
READOUT: ED50 (mg/kg)
Give bare numbers, in mg/kg.

CCNC(=O)NCCNCC(O)COc1ccccc1 (stereo not given) | 0.024

Parameters: items (list). Returns: ED50 for each item.
1. C=CCOc1ccccc1OCC(O)CNC(C)CNC(=O)Cc1ccccc1 (stereo not given)
2. CCCCNC(=O)NCCNCC(O)COc1ccccc1 (stereo not given)

A.
1: 0.019; 2: 0.022

Parameters: items (list). Returns: ED50 for each item.
1. CC(=O)NCCCCCCNCC(O)COc1ccccc1 (stereo not given)
2. C=CCNC(=O)NCCNCC(O)COc1ccccc1 (stereo not given)

A.
0.044
0.024
